protocol.details: Kinetic solubility in bio-relevant media (SGF, FaSSIF, FeSSIF) and H2O at 37° C.
Type: physicochemical
protocol.conditions: SGF, 37 °C, pH 1.8, simulated gastric fluid, thermodynamic from solid, SGF (pH 1.8), 4 hr
measurement.type: solubility at 4 h (µg/mL)
Respond with the bare value in µg/mL.

input: Need solubility at 4 h, item CN1C(=O)[C@@H](NC(=O)c2nnc(Cc3ccccc3)[nH]2)COc2cccnc21 [Form A]
output: 100

----------
protocol.details: Kinetic solubility in bio-relevant media (SGF, FaSSIF, FeSSIF) and H2O at 37° C.
Assay type: physicochemical
protocol.conditions: FaSSIF, 37 °C, pH 6.5, fassif, thermodynamic from solid, FaSSIF (pH 6.5), 24 hr
measurement.type: solubility at 24 h (µg/mL)
Respond with the bare value in µg/mL.

input: Need solubility at 24 h, item CN1C(=O)[C@@H](NC(=O)c2nnc(Cc3ccccc3)[nH]2)COc2cccnc21 [Form A]
output: 100

----------
protocol.details: Kinetic solubility in bio-relevant media (SGF, FaSSIF, FeSSIF) and H2O at 37° C.
Type: physicochemical
protocol.conditions: water, 37 °C, pH 6.5, water, thermodynamic from solid, H2O (pH 6.5), 24 hr
Protocol: Kinetic solubility tests of Form A, Form B, and Form C was performed in bio-relevant media (SGF, FaSSIF and FeSSIF) and H2O at 37° C. Solids were suspended into FaSSIF, FeSSIF, SGF and H2O with target conc. of ˜10 mg/mL. The suspensions were agitated on a rolling incubator at 25 rpm (in the incubator set at 37° C.) for 1, 4 and 24 hrs. […] The residual solids were analyzed by XRPD. […]
measurement.type: solubility at 24 h (µg/mL)
Respond with the bare value in µg/mL.

input: Need solubility at 24 h, item CN1C(=O)[C@@H](NC(=O)c2nnc(Cc3ccccc3)[nH]2)COc2cccnc21 [Form A]
output: 90

----------
protocol.details: Kinetic solubility in bio-relevant media (SGF, FaSSIF, FeSSIF) and H2O at 37° C.
Type: physicochemical
protocol.conditions: water, 37 °C, pH 6.5, water, thermodynamic from solid, H2O (pH 6.5), 4 hr
measurement.type: solubility at 4 h (µg/mL)
Respond with the bare value in µg/mL.

input: Need solubility at 4 h, item CN1C(=O)[C@@H](NC(=O)c2nnc(Cc3ccccc3)[nH]2)COc2cccnc21 [Form A]
output: 90

----------
protocol.details: Kinetic solubility in bio-relevant media (SGF, FaSSIF, FeSSIF) and H2O at 37° C.
Assay type: physicochemical
protocol.conditions: SGF, 37 °C, pH 1.8, simulated gastric fluid, thermodynamic from solid, SGF (pH 1.8), 24 hr
Procedure: Kinetic solubility tests of Form A, Form B, and Form C was performed in bio-relevant media (SGF, FaSSIF and FeSSIF) and H2O at 37° C. Solids were suspended into FaSSIF, FeSSIF, SGF and H2O with target conc. of ˜10 mg/mL. The suspensions were agitated on a rolling incubator at 25 rpm (in the incubator set at 37° C.) for 1, 4 and 24 hrs. […] The residual solids were analyzed by XRPD. […]
measurement.type: solubility at 24 h (µg/mL)
Respond with the bare value in µg/mL.

input: Need solubility at 24 h, item CN1C(=O)[C@@H](NC(=O)c2nnc(Cc3ccccc3)[nH]2)COc2cccnc21 [Form A]
output: 100
